test: Quantitative High-Throughput drug screen in 47 multiple myeloma cell lines against the NCATS MIPE library collection: VP6_DJ cell viability assay (AID 1919867); conditions: ATP luminescence, 48 h; series mostly up to 45.8 µM; note: potency is the fitted concentration of half-maximal effect; nearly all actives have a fitted effect of over 40% in size
Records with an inconclusive call do not appear. Activity calls are given as the source filed them. Calls come from the whole dose curve; as a rule, active = well fitted cell-killing curve with a large enough effect; inconclusive = small, poorly fitted or top-dose-only effect, or effect the other way; inactive = no such curve, though single readings can be large or run the other way.
MEASURED_METRIC: Potency

Worked examples follow.
Cn1cc(C=C2C(=O)Nc3cccnc32)c2ccccc21 :: 10.5 µM (active)
O=C1NC(=O)C(=Cc2ccc3nccnc3c2)S1 :: 4.57 µM (active)

Data request, read-out Potency, for "CCCCCCCCCCCC1=C(O)C(=O)C=C(O)C1=O"
2.64 µM (active)
